Measured inhibition at 50 µM, listed per entry for reference.
Test system: IL-6 production in LPS-stimulated murine spleenocytes
Experiment: Inhibition of IL-6 production in LPS-stimulated murine spleenocytes in vitro
Assay type: cell-based
Settings: Mus musculus, 50 μM concentration of the compound, read-out: inhibition of interleukin-6 (IL-6) production
Method: Test and reference substances used in an in vitro assays were dissolved in dimethyl sulfoxide (DMSO) (Sigma Chemical Co., USA) at a concentration of 50 mM and were further diluted to test concentrations in appropriate cell culture medium. After cervical dislocation, mouse spleens were removed using sterile dissection tools. […] Inhibition (as percentage) was calculated using the following formula: […]

>  <compound>
CC[C@H]1OC(=O)[C@H](C)[C@@H](O[C@H]2C[C@@](C)(OC)[C@@H](O)[C@H](C)O2)[C@H](C)[C@@H](O[C@@H]2O[C@H](C)C[C@H](N(C)C)[C@H]2OCCCNC(=O)[C@@H](N)Cc2ccccc2)[C@](C)(O)C[C@@H](C)CN(C)[C@H](C)[C@@H](O)[C@]1(C)O [Example 10]

>  <result>
> 40%

$$$$

Next up:
Problem: I'm curious: which inhibition at 50 µM was measured for CC[C@H](C)[C@H](N)C(=O)NCCCO[C@H]1[C@H](O[C@@H]2[C@@H](C)[C@H](O[C@H]3C[C@@](C)(OC)[C@@H](O)[C@H](C)O3)[C@@H](C)C(=O)O[C@H](CC)[C@@](C)(O)[C@H](O)[C@@H](C)N(C)C[C@H](C)C[C@@]2(C)O)O[C@H](C)C[C@@H]1N(C)C [Example 11] tested on IL-6 production in LPS-stimulated murine spleenocytes?
Solution: > 40%
